assay: OS2 (OPTISAFE2), OPTISAFE formulation with antioxidants; conditions: Table 7A; repeat 1, with antioxidants; predicted GHS class
attribute-measured: 0S2 R1

Form field 0S2 R1, entry CCCOCC(C)O (stereo not shown) : 2

Form field 0S2 R1, entry O=C(O)CCSSCCC(=O)O : 1

Form field 0S2 R1, entry O=P(O)(OCc1ccccc1)OCc1ccccc1 [Dibenzyl phosphate] : 1

Form field 0S2 R1, entry O=C=Nc1ccc(Cl)c(Cl)c1 [3,4-Dichlorophenyl isocyanate] : 1

###

assay: OS2 (OPTISAFE2), OPTISAFE formulation with antioxidants; conditions: Table 7B; majority prediction of the triplicate assays
attribute-measured: OS2 Cons
Respond with the number and no other words.

>>> recorded_value("O.O.O.O.[Na+].[O-]B1OO1 [Sodium perborate tetrahydrate]")
1

Now consider a different compound.
Form field OS2 Cons, entry O=C1CCCO1 [gamma-Butyrolactone] : 2
